system: MDA-MB-468 breast; assay: NCI tumour cell line growth inhibition, 48 h
I would appreciate it if you labelled entries criterion met when TGI is 20 µM or higher, otherwise criterion not met.

compound: CC(C)[C@H](CO)Nc1nc(Nc2ccc(C(=O)NCCNS(=O)(=O)c3cccc4c(N(C)C)cccc34)c(Cl)c2)c2ncn(C(C)C)c2n1
qualitative_label: criterion not met
//
compound: CCn1c(CN2CCN(Cc3ccccc3)CC2)nc2cc(NC(=O)c3cccs3)ccc21
qualitative_label: criterion met
//
compound: Cc1ccccc1N=Nc1ccc(NC(=O)c2ccnn2C)c(C)c1
qualitative_label: criterion met
//
compound: O=[N+]([O-])c1ccc(-c2nnc(SCc3ccc(O)c4ncccc34)o2)cc1
qualitative_label: criterion met
//
compound: O=c1c2ccccc2n(C[C@H]2CO2)c2ccccc12
qualitative_label: criterion not met
//
compound: Nc1c(Br)cc(Br)c2c1[nH]c(=O)c1ccccc12
qualitative_label: criterion not met
//
compound: COc1ccc(Cc2nn(CC(=O)N/N=C/c3ccc(F)cc3)c(=O)c3c(C)noc23)cc1
qualitative_label: criterion not met
//
compound: Cc1c(-c2c(-c3ccc(F)o3)sc3ncnc(O[C@H](Cc4ccccc4OCc4ccnn4CC(F)(F)F)C(=O)O)c23)ccc(OCCN2CCN(C)CC2)c1Cl
qualitative_label: criterion not met
//
compound: COc1cc(C)c(Cl)cc1C1=NN(c2ccc(S(N)(=O)=O)cc2)C(/C=C/c2ccccc2)C1 (centres undefined)
qualitative_label: criterion not met
